The entries below are paired with their reported pEC50.
measured target: CFTR-mediated chloride transport in human intestinal epithelial enteroid cells (Homo sapiens, UniProt P13569)
Sequence (P13569 with tags, fused parts or gaps DEL508-508): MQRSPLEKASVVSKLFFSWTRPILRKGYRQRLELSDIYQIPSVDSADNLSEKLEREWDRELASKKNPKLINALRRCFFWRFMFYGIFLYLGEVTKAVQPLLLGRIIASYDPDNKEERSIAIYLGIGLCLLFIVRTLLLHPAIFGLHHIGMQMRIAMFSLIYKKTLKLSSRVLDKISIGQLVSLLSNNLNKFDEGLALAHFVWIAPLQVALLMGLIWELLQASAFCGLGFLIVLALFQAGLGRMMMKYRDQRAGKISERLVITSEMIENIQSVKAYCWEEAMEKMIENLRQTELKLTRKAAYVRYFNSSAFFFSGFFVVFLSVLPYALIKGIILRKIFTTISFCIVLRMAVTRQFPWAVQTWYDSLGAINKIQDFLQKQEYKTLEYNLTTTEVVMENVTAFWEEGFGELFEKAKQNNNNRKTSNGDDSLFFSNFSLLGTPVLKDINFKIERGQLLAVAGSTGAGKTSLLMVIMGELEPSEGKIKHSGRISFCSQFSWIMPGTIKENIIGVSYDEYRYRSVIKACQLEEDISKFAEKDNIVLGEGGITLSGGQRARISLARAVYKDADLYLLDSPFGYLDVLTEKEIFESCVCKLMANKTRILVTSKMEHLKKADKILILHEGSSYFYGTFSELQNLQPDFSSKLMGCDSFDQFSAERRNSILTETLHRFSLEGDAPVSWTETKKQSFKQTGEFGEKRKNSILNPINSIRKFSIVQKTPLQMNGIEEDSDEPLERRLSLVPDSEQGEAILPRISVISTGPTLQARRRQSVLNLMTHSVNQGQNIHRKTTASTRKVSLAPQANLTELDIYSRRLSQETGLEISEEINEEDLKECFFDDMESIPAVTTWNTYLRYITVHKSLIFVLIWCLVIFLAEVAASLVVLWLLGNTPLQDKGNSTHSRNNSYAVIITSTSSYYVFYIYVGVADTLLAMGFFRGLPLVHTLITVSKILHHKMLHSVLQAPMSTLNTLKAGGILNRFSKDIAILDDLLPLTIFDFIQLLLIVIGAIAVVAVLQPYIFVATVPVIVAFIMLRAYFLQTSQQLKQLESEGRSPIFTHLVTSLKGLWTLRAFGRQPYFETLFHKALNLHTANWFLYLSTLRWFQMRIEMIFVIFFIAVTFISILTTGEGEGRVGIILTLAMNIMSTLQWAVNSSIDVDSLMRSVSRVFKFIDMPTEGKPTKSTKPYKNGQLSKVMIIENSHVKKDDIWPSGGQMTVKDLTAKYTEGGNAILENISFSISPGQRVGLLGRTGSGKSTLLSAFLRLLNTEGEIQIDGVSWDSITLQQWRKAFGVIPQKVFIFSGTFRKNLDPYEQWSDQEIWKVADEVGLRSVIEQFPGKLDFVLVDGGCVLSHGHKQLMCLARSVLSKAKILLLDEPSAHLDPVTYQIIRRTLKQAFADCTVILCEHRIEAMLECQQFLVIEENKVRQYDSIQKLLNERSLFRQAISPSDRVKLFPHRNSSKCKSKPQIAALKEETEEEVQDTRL
assay notes: Membrane potential dye, Enteroid Assay A
Type: cell-based
assay context: Enteroid Assay A; read-out: Ent. A EC50
pEC50: −log10 of the molar value.

Cc1cccc(C)c1-c1cc2nc(n1)NS(=O)(=O)c1cccc(c1)C(=O)N1CCN(CCC3(C(F)(F)F)CC3)CC(C1)O2 (single isomer, unassigned) [Compound 69] :: > 6.00
Cc1cccc(C)c1-c1cc2nc(n1)NS(=O)(=O)c1cccc(c1)C(=O)N1CCN(Cc3ccc(C(C)(C)C)cc3)C[C@H](C1)O2 [Compound 16] :: > 6.00
Cc1cccc(C)c1-c1cc2nc(n1)NS(=O)(=O)c1cccc(c1)C(=O)N1CCCN(CCC3(C(F)(F)F)CC3)CC(C1)O2 (centres unmarked) [Compound 358] :: > 6.00
Cc1cccc(C)c1-c1cc2nc(n1)NS(=O)(=O)c1cccc(c1)C(=O)N1C[C@@H](CNC[C@@H]1CC(C)C)O2 [Compound 95] :: > 6.00
Cc1cccc(C)c1-c1cc2nc(n1)NS(=O)(=O)c1cccc(c1)C(=O)N1CCN(Cc3ccccc3)C[C@H](O2)[C@H]1CC(C)C [Compound 86] :: > 6.00

Query: What value of pEC50 has been reported for the following compound? Cc1cccc(C)c1-c1cc2nc(n1)NS(=O)(=O)c1cccc(c1)CN1CC(CN(C3CCC(F)(F)CC3)CC1=O)O2 (centres unmarked) [Compound 78]
Response: > 6.00

Query: What value of pEC50 has been reported for the following compound? Cc1cccc(C)c1-c1cc2nc(n1)NS(=O)(=O)c1cccc(c1)C(=O)N1C[C@@H](CN(C(=O)OC(C)(C)C)C[C@@H]1C(C)C)O2 [Compound 132]
Response: > 6.00

Query: What value of pEC50 has been reported for the following compound? Cc1cccc(C)c1-c1cc2nc(n1)NS(=O)(=O)c1cccc(c1)C(=O)N1C[C@@H](CN(C3CC4(CCCC4)C3)C[C@H]1C(C)C)O2 [Compound 127]
Response: > 6.00
